Target: IRAK4 (Homo sapiens, UniProt Q9NWZ3)
Sequence (Q9NWZ3 1-460): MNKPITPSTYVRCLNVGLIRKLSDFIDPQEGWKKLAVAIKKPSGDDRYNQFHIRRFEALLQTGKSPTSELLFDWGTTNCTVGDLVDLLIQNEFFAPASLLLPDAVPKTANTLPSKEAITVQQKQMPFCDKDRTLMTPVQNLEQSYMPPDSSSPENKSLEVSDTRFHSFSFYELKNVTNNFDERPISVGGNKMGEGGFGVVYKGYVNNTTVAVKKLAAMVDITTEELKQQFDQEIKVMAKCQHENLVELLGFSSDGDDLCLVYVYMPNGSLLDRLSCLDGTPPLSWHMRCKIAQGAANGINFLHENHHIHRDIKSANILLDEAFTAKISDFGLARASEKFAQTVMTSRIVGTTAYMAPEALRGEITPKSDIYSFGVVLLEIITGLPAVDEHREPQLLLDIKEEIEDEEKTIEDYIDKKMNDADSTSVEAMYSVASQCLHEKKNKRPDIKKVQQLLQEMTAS
Assay: biochemical
Conditions: IRAK4 Biochemical Assay (1 mM ATP, 2 h) IC50 (μM), 1 mM ATP, 2 h, 100 pM IRAK4
Where a name gives a salt, the structure may show the parent alone.
Reported Endpoint: IC50 (µM)

In the examples that follow, each entry is paired with its recorded IC50.
* O=C(Nc1cccc(C(F)F)n1)c1cn2cc(C3CC3)nc2cc1OC1CCOCC1 [Example 473] | 0.0064
* COc1cc2nc(C3CC4CCC(C3)O4)cn2cc1C(=O)Nc1cccc(C(F)(F)F)n1 (stereo not shown) [Example 44] | 0.0088

A: CCc1cccc(NC(=O)c2cn3cc(C4CC5(CCOC5)C4)nc3cc2OC)n1 (stereo not shown) [Example 62]
B: CCOc1nc(C(=O)Nc2cccc(C(F)F)n2)cn2cc(C3CCOCC3)nc12 [Example 207, trifluoroacetate]
Which entry shows the lesser value of IC50 here, A or B ? Answer = label.
A
(A: 0.0038 µM, B: 0.0147 µM)
